Tested on: Mus musculus
ASSAY_COMMENT: Analgesic activity in mouse assessed as protection against phenylquinone-induced writhes at 50 mg/kg, po administered 1 hr before phenylquinone challenge relative to control
Format: functional
Rule: Activity of 20% or more gives true; anything lower gives false.

Challenge: Check this compound for Activity at or above 20%: "CCCCC1C(=O)N(c2ccccc2)N(c2ccccc2)C1=O"
Response given: true

Challenge: hey, is Activity for this one >= 20%? "Clc1ccc(/N=N/C(=N\c2nc(-c3c(-c4ccc(Cl)cc4)[nH]c4ccccc34)cs2)c2c[nH]c3ccccc23)cc1"
Response given: false

Challenge: Is reported Activity greater than or equal to 20% here: "Clc1ccc(-c2[nH]c3ccccc3c2-c2csc(/N=C/c3c[nH]c4ccccc34)n2)cc1"
Response given: true

Challenge: Say whether "Cc1[nH]c2ccccc2c1C(=N/c1nc(-c2c(-c3ccc(Cl)cc3)[nH]c3ccccc23)co1)/N=N/c1ccc(Cl)cc1" shows Activity of 20% or more.
Response given: true

Challenge: Kindly determine if Activity recorded for "COc1ccc(/N=N/C(=N\c2nc(-c3c(-c4ccc(Cl)cc4)[nH]c4ccccc34)co2)c2c(C)[nH]c3ccccc23)cc1" is above or exactly 20%.
Response given: false

Challenge: Hi, just wondering whether "CCc1[nH]c2ccccc2c1C(=N/c1nc(-c2c(-c3ccc(Cl)cc3)[nH]c3ccccc23)cs1)/N=N/c1ccc(OC)cc1" shows Activity of 20% or higher.
Response given: false

Challenge: Is the recorded value of Activity equal to or greater than 20% for this compound? "COc1ccc(/N=N/C(=N\c2nc(-c3c(-c4ccc(Cl)cc4)[nH]c4ccccc34)co2)c2c(-c3ccccc3)[nH]c3ccccc23)cc1"
Response given: false

Challenge: Decide: Activity of "Clc1ccc(-c2[nH]c3ccccc3c2-c2coc(/N=C/c3c(-c4ccccc4)[nH]c4ccccc34)n2)cc1" >= 20%?
Response given: true

====

Tested on: Mus musculus
ASSAY_COMMENT: Analgesic activity in mouse assessed as protection against phenylquinone-induced writhes at 50 mg/kg, po administered 1 hr before phenylquinone challenge relative to control
Format: functional
Doc: threshold 20% (exclusive). Items with Activity beneath it return Fulfilled; others return Not fulfilled.

Challenge: # strict comparison: is reported Activity < 20%? input = "Cc1[nH]c2ccccc2c1/C=N/c1nc(-c2c(-c3ccc(Cl)cc3)[nH]c3ccccc23)cs1"
Response given: Not fulfilled

Challenge: Please check: Activity for "COc1ccc(/N=N/C(=N\c2nc(-c3c(-c4ccc(Cl)cc4)[nH]c4ccccc34)cs2)c2c(-c3ccccc3)[nH]c3ccccc23)cc1" , strictly under 20% or not?
Response given: Fulfilled

Challenge: I wonder whether "CCc1[nH]c2ccccc2c1C(=N/c1nc(-c2c(-c3ccc(Cl)cc3)[nH]c3ccccc23)co1)/N=N/c1ccc(OC)cc1" has Activity below 20%. Can you tell?
Response given: Not fulfilled

Challenge: Strictly below 20% in Activity? "Clc1ccc(/N=N/C(=N\c2nc(-c3c(-c4ccc(Cl)cc4)[nH]c4ccccc34)cs2)c2c(-c3ccccc3)[nH]c3ccccc23)cc1"
Response given: Not fulfilled

Challenge: Is it true that Activity reported for "Clc1ccc(/N=N/C(=N\c2nc(-c3c(-c4ccc(Cl)cc4)[nH]c4ccccc34)co2)c2c[nH]c3ccccc23)cc1" is less than 20%?
Response given: Fulfilled

Challenge: Activity under 20%? Item: "COc1ccc(/N=N/C(=N\c2nc(-c3c(-c4ccc(Cl)cc4)[nH]c4ccccc34)co2)c2c[nH]c3ccccc23)cc1"
Response given: Fulfilled

Challenge: Say whether its Activity is strictly beneath 20%. Entry: "Clc1ccc(/N=N/C(=N\c2nc(-c3c(-c4ccc(Cl)cc4)[nH]c4ccccc34)co2)c2c(-c3ccccc3)[nH]c3ccccc23)cc1"
Response given: Not fulfilled

====

ASSAY_COMMENT: Toxicity in ip dosed Albino rat assessed as ulcerogenic activity after 8 hrs
Format: organism-based
CONDITION_NOTES: in vivo, read-out: UD50
ENDPOINT: TD50 at 8 h

Per the record, CCCCC1C(=O)N(c2ccccc2)N(c2ccccc2)C1=O [PHENYLBUTAZONE] has TD50 at 8 h of 66.7 mg/kg

So, "Cc1[nH]c2ccccc2c1/C=N/c1nc(-c2c(-c3ccc(Cl)cc3)[nH]c3ccccc23)cs1" ? Its TD50 at 8 h was 200 mg/kg

====

System: Mus musculus
ASSAY_COMMENT: Analgesic activity in mouse assessed as protection against phenylquinone-induced writhes at 50 mg/kg, po administered 1 hr before phenylquinone challenge relative to control
Assay type: functional
Given measured Activity, output Yes if it is greater than or equal to 20% and No if not.

Challenge: Record "COc1ccc(/N=N/C(=N\c2nc(-c3c(-c4ccc(Cl)cc4)[nH]c4ccccc34)cs2)c2c[nH]c3ccccc23)cc1" ; criterion: Activity no lower than 20%. Met?
Response given: No

Challenge: Determine whether measured Activity meets or exceeds 20% for "CCc1[nH]c2ccccc2c1/C=N/c1nc(-c2c(-c3ccc(Cl)cc3)[nH]c3ccccc23)co1"
Response given: No

Challenge: Is Activity at least 20%? Consider "COc1ccc(/N=N/C(=N\c2nc(-c3c(-c4ccc(Cl)cc4)[nH]c4ccccc34)cs2)c2c(C)[nH]c3ccccc23)cc1"
Response given: No

Challenge: State whether the measured Activity reaches 20%, counting equality as reaching it, for "CCc1[nH]c2ccccc2c1/C=N/c1nc(-c2c(-c3ccc(Cl)cc3)[nH]c3ccccc23)cs1"
Response given: Yes

Challenge: Decide: is the reported value of Activity for "CCc1[nH]c2ccccc2c1C(=N/c1nc(-c2c(-c3ccc(Cl)cc3)[nH]c3ccccc23)cs1)/N=N/c1ccc(Cl)cc1" equal to or greater than 20%?
Response given: No

Challenge: Please tell me: is the compound "CCc1[nH]c2ccccc2c1C(=N/c1nc(-c2c(-c3ccc(Cl)cc3)[nH]c3ccccc23)co1)/N=N/c1ccc(Cl)cc1" at or over 20% in terms of Activity?
Response given: Yes

Challenge: # bool: Activity of "Clc1ccc(-c2[nH]c3ccccc3c2-c2coc(/N=C/c3c[nH]c4ccccc34)n2)cc1" >= 20%
Response given: Yes

====

Tested on: Rattus norvegicus
ASSAY_COMMENT: Antiinflammatory activity in Albino rat assessed as inhibition of carrageenan-induced paw edema at 50 mg/kg, po administered 1 hr before carrageenan challenge by micro-pipette method relative to control
Format: functional
Parameters: scale not given: the % may be the effect or the level left
Tick condition met if Activity is 20% or greater. Tick condition not met if Activity is less than 20%.

Challenge: Kindly determine if Activity recorded for "CCc1[nH]c2ccccc2c1C(=N/c1nc(-c2c(-c3ccc(Cl)cc3)[nH]c3ccccc23)co1)/N=N/c1ccc(OC)cc1" is above or exactly 20%.
Response given: condition met

Challenge: Say whether "Cc1[nH]c2ccccc2c1C(=N/c1nc(-c2c(-c3ccc(Cl)cc3)[nH]c3ccccc23)cs1)/N=N/c1ccc(Cl)cc1" shows Activity of 20% or more.
Response given: condition met

Challenge: Kindly determine if Activity recorded for "CCc1[nH]c2ccccc2c1/C=N/c1nc(-c2c(-c3ccc(Cl)cc3)[nH]c3ccccc23)co1" is above or exactly 20%.
Response given: condition not met

Challenge: Tell me whether Activity is at least 20% here: "Clc1ccc(/N=N/C(=N\c2nc(-c3c(-c4ccc(Cl)cc4)[nH]c4ccccc34)co2)c2c[nH]c3ccccc23)cc1"
Response given: condition not met

Challenge: Is Activity at least 20%? Consider "COc1ccc(/N=N/C(=N\c2nc(-c3c(-c4ccc(Cl)cc4)[nH]c4ccccc34)co2)c2c(-c3ccccc3)[nH]c3ccccc23)cc1"
Response given: condition not met

Challenge: Kindly determine if Activity recorded for "COc1ccc(/N=N/C(=N\c2nc(-c3c(-c4ccc(Cl)cc4)[nH]c4ccccc34)co2)c2c(C)[nH]c3ccccc23)cc1" is above or exactly 20%.
Response given: condition not met

Challenge: Does the reported Activity for "Clc1ccc(-c2[nH]c3ccccc3c2-c2coc(/N=C/c3c[nH]c4ccccc34)n2)cc1" fall at or above the 20% mark?
Response given: condition met

Challenge: Item "Cc1[nH]c2ccccc2c1/C=N/c1nc(-c2c(-c3ccc(Cl)cc3)[nH]c3ccccc23)co1" with Activity of 20% or above?
Response given: condition met

Challenge: Please indicate if the recorded Activity for "Cc1[nH]c2ccccc2c1C(=N/c1nc(-c2c(-c3ccc(Cl)cc3)[nH]c3ccccc23)co1)/N=N/c1ccc(Cl)cc1" meets or exceeds 20%.
Response given: condition met

Challenge: Determine whether measured Activity meets or exceeds 20% for "Clc1ccc(-c2[nH]c3ccccc3c2-c2coc(/N=C/c3c(-c4ccccc4)[nH]c4ccccc34)n2)cc1"
Response given: condition met

Challenge: Identify whether the reported Activity of the following compound is 20% or greater: "Clc1ccc(/N=N/C(=N\c2nc(-c3c(-c4ccc(Cl)cc4)[nH]c4ccccc34)cs2)c2c(-c3ccccc3)[nH]c3ccccc23)cc1"
Response given: condition met

Challenge: Determine whether measured Activity meets or exceeds 20% for "COc1ccc(/N=N/C(=N\c2nc(-c3c(-c4ccc(Cl)cc4)[nH]c4ccccc34)cs2)c2c(C)[nH]c3ccccc23)cc1"
Response given: condition not met

Challenge: API: above_or_equal(metric=Activity, cutoff=20%) for item "COc1ccc(/N=N/C(=N\c2nc(-c3c(-c4ccc(Cl)cc4)[nH]c4ccccc34)co2)c2c[nH]c3ccccc23)cc1"
Response given: condition met

Challenge: Given the entry "Clc1ccc(/N=N/C(=N\c2nc(-c3c(-c4ccc(Cl)cc4)[nH]c4ccccc34)cs2)c2c[nH]c3ccccc23)cc1" , answer whether its Activity meets or surpasses 20%.
Response given: condition not met

Challenge: Decide: is the reported value of Activity for "CCc1[nH]c2ccccc2c1C(=N/c1nc(-c2c(-c3ccc(Cl)cc3)[nH]c3ccccc23)cs1)/N=N/c1ccc(Cl)cc1" equal to or greater than 20%?
Response given: condition not met
